We begin with a simple list: items and their reported 24hr Dox Inducible IL6R(ss + 10)Gluc 293FRT/TO: IL6R/PD1.
Tested on: IL6R-ss+10aa/Gaussia Luciferase
Experiment: Dox-induced IL-6R-ss-Gluc Assay
Format: cell-based
Conditions: ratio of IC50s IL6R/PD1; Table 1
Excerpt: Flp-In 293 T-REx™ cells were transfected with pcDNATM5/FRT/TO plasmid inserted with cDNA encoding Gaussia Luciferase fused to the 3′ end of cDNA encoding IL6R signal sequence plus 10 amino acids (N-[…]-C). Transfected cells were selected for resistance to the selectable markers Hygromycin and Blasticidin to create a stable cell line that contained the IL6R-ss+10aa/Gaussia Luciferase cDNA insert whose expression was regulated under the T-REx™ system. […]
readout_type: 24hr Dox Inducible IL6R(ss + 10)Gluc 293FRT/TO: IL6R/PD1

1) CC(C)n1cnc(/C=C/c2csc(NC(=O)c3cc(Cl)cn3Cc3ccnc(F)c3)n2)c1Cl 62
2) O=C(Nc1nc(/C=C/c2cccc(F)c2)cs1)c1cccn1Cc1ccnc(F)c1 7
3) O=C(Nc1nc(/C=C/c2ncn(C3CC3)c2Cl)cs1)c1cc(OCF)cn1Cc1ccnc(F)c1 287
4) O=C(Nc1nc(/C=C/c2cn(C(F)(F)F)cn2)cs1)c1cc(Cl)cn1Cc1ccnc(F)c1 3
5) COc1cc(C(=O)Nc2nc(/C=C/c3ncn(C(C)C)c3Cl)cs2)n(Cc2ccnc(F)c2)c1 133
6) COc1cc(C(=O)Nc2nc(/C=C/c3ncn(C4CC4)c3Cl)cs2)n(Cc2ccnc(F)c2F)c1 123
